Target: KiSS-1 receptor (Rattus norvegicus)
Sequence (Q924U1 whole entry): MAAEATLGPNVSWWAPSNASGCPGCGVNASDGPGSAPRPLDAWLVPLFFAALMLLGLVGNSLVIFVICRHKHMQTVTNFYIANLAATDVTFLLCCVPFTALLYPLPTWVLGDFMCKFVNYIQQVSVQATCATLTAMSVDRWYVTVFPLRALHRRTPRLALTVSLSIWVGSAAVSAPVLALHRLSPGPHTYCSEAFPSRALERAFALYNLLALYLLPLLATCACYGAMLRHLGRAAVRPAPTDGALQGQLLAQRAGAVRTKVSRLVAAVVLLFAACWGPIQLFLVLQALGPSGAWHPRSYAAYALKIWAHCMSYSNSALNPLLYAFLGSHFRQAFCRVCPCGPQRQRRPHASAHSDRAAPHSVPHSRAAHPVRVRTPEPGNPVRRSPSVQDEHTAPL
Assay: Agonist activity at rat KISS1R transfected in CHO cells assessed as intracellular calcium flux after 24 hrs by functional FLIPR assay
Reported EC50 values are given for each entry in this list.
Only the number, expressed in nM, is required.

CC[C@H](NC(=O)[C@@H](Cc1c[nH]c2ccccc12)NC(=O)[C@H](N)Cc1ccc(O)cc1)C(=O)N[C@@H](CO)C(=O)N[C@@H](Cc1ccccc1)C(=O)NNC(=O)N[C@@H](CC(C)C)C(=O)N[C@@H](CCCNC(=N)NC)C(=O)N[C@@H](Cc1c[nH]c2ccccc12)C(N)=O 2.8

Kindly review the next molecule as well.
Given the entry "CNC(=N)NCCC[C@H](NC(=O)[C@H](CC(C)C)NC(=O)NNC(=O)[C@H](Cc1ccccc1)NC(=O)[C@H](CO)NC(=O)[C@H](CC(N)=O)NC(=O)[C@@H](Cc1ccncc1)NC(=O)[C@H](N)Cc1ccc(O)cc1)C(=O)N[C@@H](Cc1c[nH]c2ccccc12)C(N)=O" , report its measured EC50.
6

* * *

Experiment: Mean residence time in Sprague-Dawley rat at 1 mg/kg, iv after 24 hrs by LC-MS/MS analysis
Format: ADME, organism-based
Design: dose 1 mg/kg, route intravenous
Conditions: in vivo
Where a SMILES comes first, the peptide text is derived from it. [ ]: non-standard residue; d: D form. Arg(Me) = CNC(=N)NCCC[C@H](N)C(=O)O; d4Pal = N[C@H](Cc1ccncc1)C(=O)O; azaGly = NNC(=O)O
observable: MRT
Answer format reminder: number followed by unit.

Completed entries (count: 4):
compound	observable	measured
CNC(=N)NCCC[C@H](NC(=O)[C@H](CC(C)C)NC(=O)NNC(=O)[C@H](Cc1ccccc1)NC(=O)[C@@H](NC(=O)[C@H](CC(N)=O)NC(=O)[C@@H](Cc1c[nH]c2ccccc12)NC(=O)[C@@H](Cc1ccc(O)cc1)NC(C)=O)[C@@H](C)O)C(=O)N[C@@H](Cc1ccccc1)C(N)=O	MRT	26.4 min
CNC(=N)NCCC[C@H](NC(=O)[C@H](CC(C)C)NC(=O)NNC(=O)[C@H](Cc1ccccc1)NC(=O)[C@@H](NC(=O)[C@H](CC(N)=O)NC(=O)[C@@H](Cc1c[nH]c2ccccc12)NC(=O)[C@@H](Cc1ccc(O)cc1)NC(C)=O)[C@@H](C)O)C(=O)N[C@@H](Cc1c[nH]c2ccccc12)C(N)=O (Ac-[dY][dW]NTF[azaGly]L[Arg(Me)]W-NH2)	MRT	41.4 min
CNC(=N)NCCC[C@H](NC(=O)[C@H](CC(C)C)NC(=O)NNC(=O)[C@H](Cc1ccccc1)NC(=O)[C@@H](NC(=O)[C@H](CC(N)=O)NC(=O)[C@@H](Cc1ccncc1)NC(=O)[C@@H](Cc1ccc(O)cc1)NC(C)=O)[C@@H](C)O)C(=O)N[C@@H](Cc1c[nH]c2ccccc12)C(N)=O	MRT	41.4 min
CNC(=N)NCCC[C@H](NC(=O)[C@H](CC(C)C)NC(=O)NNC(=O)[C@H](Cc1ccccc1)NC(=O)[C@@H](NC(=O)[C@H](CC(N)=O)NC(=O)[C@@H](Cc1c[nH]c2ccccc12)NC(=O)[C@H](N)Cc1ccc(O)cc1)[C@@H](C)O)C(=O)N[C@@H](Cc1c[nH]c2ccccc12)C(N)=O	MRT	43.8 min

Kindly review the next compound as well.
Given the entry CNC(=N)NCCC[C@H](NC(=O)[C@H](CC(C)C)NC(=O)NNC(=O)[C@H](Cc1ccccc1)NC(=O)[C@H](CO)NC(=O)[C@H](CC(N)=O)NC(=O)[C@@H](Cc1ccncc1)NC(=O)[C@H](N)Cc1ccc(O)cc1)C(=O)N[C@@H](Cc1ccccc1)C(N)=O [KISS1-305] (H-[dY][d4Pal]NSF[azaGly]L[Arg(Me)]F-NH2) , report its measured MRT.
22.8 min
